The measurements presented in this section are drawn from ChEMBL document CHEMBL1131646.

Experiment: Lethal dose to produce acute toxicity was evaluated in white crossbred mice weighing 20-25 g
Details: mouse, in vivo
measurement.label: LD50 (mg/kg)

INSERT INTO results (compound, measurement_label, assay_result) VALUES
  ('CC(C)(C)C1=CC(=O)c2c(O)c(O)c(O)c(O)c2C1=O', 'LD50', 170),
  ('CCCC1=C(O)C(=O)c2c(O)c(O)c(O)c(O)c2C1=O', 'LD50', 80),
  ('CCc1c(O)c(O)c2c(c1O)C(=O)C(SC[C@H](NC(=O)CC[C@H](N)C(=O)O)C(=O)NCC(=O)O)=C(SC[C@H](NC(=O)CC[C@H](N)C(=O)O)C(=O)NCC(=O)O)C2=O', 'LD50', 1480),
  ('O=C(O)CCC1=C(O)C(=O)c2c(O)c(O)c(O)c(O)c2C1=O', 'LD50', 95),
  ('Cc1c(O)c(O)c2c(c1O)C(=O)C(SC[C@H](NC(=O)CC[C@H](N)C(=O)O)C(=O)NCC(=O)O)=C(SC[C@H](NC(=O)CC[C@H](N)C(=O)O)C(=O)NCC(=O)O)C2=O', 'LD50', 1350),
  ('N[C@@H](CCC(=O)N[C@@H](CSC1=C(SC[C@H](NC(=O)CC[C@H](N)C(=O)O)C(=O)NCC(=O)O)C(=O)c2c(O)c(O)c(O)c(O)c2C1=O)C(=O)NCC(=O)O)C(=O)O', 'LD50', 1210),
  ('Cc1c(O)c(O)c2c(c1O)C(=O)C(SCCO)=C(SCCO)C2=O', 'LD50', 150),
  ('CCC1=C(O)C(=O)c2c(O)c(O)c(O)c(O)c2C1=O [ECHINOCHROME A]', 'LD50', 87);
